From: the supplement of paper PMC9112550

System: Escherichia coli TOP10
assayRemarks: shrunken log2 fold change of peptide-encoding DNA abundance (4.5 h post-induction vs induction); higher = less antimicrobial activity (less host growth inhibition)
testParameters: time post-induction: 4.5 h; library: site-saturation at positions 5, 18, 19, 20
resultType: shrunken log2 fold change

• RRIRMRPPRLPRPRPRPTYDPRP = 0.473

# input Please state recorded shrunken log2 fold change (tested on Escherichia coli TOP10) of "RRIRTRPPRLPRPRPRPLINPRP"
# output -0.692

====

Tested on: Escherichia coli TOP10
assayRemarks: shrunken log2 fold change of peptide-encoding DNA abundance (4.5 h post-induction vs induction); higher = less antimicrobial activity (less host growth inhibition)
testParameters: time post-induction: 4.5 h; library: site-saturation at positions 5, 18, 19, 20
Hi, to clarify the labels: fulfilled covers shrunken log2 fold change from 0.01 upward, not fulfilled covers anything below 0.01.

A selection of reference data follows.
- RRIRERPPRLPRPRPRPWGGPRP: fulfilled
- RRIRSRPPRLPRPRPRPVKTPRP: not fulfilled
- RRIRARPPRLPRPRPRPKEWPRP: fulfilled
- RRIRIRPPRLPRPRPRPMMWPRP: not fulfilled
- RRIRGRPPRLPRPRPRPGYLPRP: fulfilled

# input Could you tell me if the measured shrunken log2 fold change of "RRIRLRPPRLPRPRPRPHLFPRP" reaches 0.01 or more?
# output not fulfilled

# input Could you tell me if the measured shrunken log2 fold change of "RRIRDRPPRLPRPRPRPMPNPRP" reaches 0.01 or more?
# output not fulfilled

====

Test system: Escherichia coli TOP10
assayRemarks: shrunken log2 fold change of peptide-encoding DNA abundance (4.5 h post-induction vs induction); higher = less antimicrobial activity (less host growth inhibition)
testParameters: time post-induction: 4.5 h; library: site-saturation at positions 5, 18, 19, 20
resultType: shrunken log2 fold change
Would you mind answering with just the numeric figure?

Please review the entries below; each comes with its answer.
• RRIRDRPPRLPRPRPRPAEIPRP = 0.184
• RRIRMRPPRLPRPRPRPLYAPRP = 0.063
• RRIRMRPPRLPRPRPRPQWMPRP = 0.109
• RRIRARPPRLPRPRPRPDRGPRP = -0.283
• RRIRYRPPRLPRPRPRPPSCPRP = -0.00175

# input Request the reported shrunken log2 fold change associated with "RRIRCRPPRLPRPRPRPMSLPRP"
# output -0.163

# input Request the reported shrunken log2 fold change associated with "RRIRDRPPRLPRPRPRPGLVPRP"
# output 0.644

# input Request the reported shrunken log2 fold change associated with "RRIRFRPPRLPRPRPRPGNEPRP"
# output -0.00911

====

Test system: Escherichia coli TOP10;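 note: peptides expressed intracellularly from a pBAD plasmid library in pooled LB shake-flask culture, induced with 0.3% L-arabinose, DNA abundance read by NGS, three biological replicates, DESeq2 with apeglm shrinkage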
assayRemarks: shrunken log2 fold change of peptide-encoding DNA abundance (4.5 h post-induction vs induction); higher = less antimicrobial activity (less host growth inhibition)
testParameters: time post-induction: 4.5 h; library: site-saturation at positions 5, 18, 19, 20
Hi, to clarify the labels: Satisfied covers shrunken log2 fold change from -0.2 upward, Not satisfied covers anything below -0.2.

- RRIRCRPPRLPRPRPRPCVSPRP: Satisfied
- RRIRERPPRLPRPRPRPCIDPRP: Satisfied
- RRIRWRPPRLPRPRPRPYQCPRP: Not satisfied

# input Could you tell me if the measured shrunken log2 fold change of "RRIRDRPPRLPRPRPRPWECPRP" reaches -0.2 or more?
# output Satisfied

# input Could you tell me if the measured shrunken log2 fold change of "RRIRWRPPRLPRPRPRPDSGPRP" reaches -0.2 or more?
# output Satisfied

# input Could you tell me if the measured shrunken log2 fold change of "RRIRNRPPRLPRPRPRPTFKPRP" reaches -0.2 or more?
# output Satisfied
